- MEASUREMENT DESCRIPTION: Biodistribution in mouse Cloudman S91 tumor bearing DBA2 mouse heart at 10 mg/kg, ip after 12 hrs
- Type: ADME, organism-based
- Parameters: dose 10 mg/kg, route intraperitoneal
- EXPERIMENTAL CONTEXT: read-out: Drug uptake
RECORDED METRIC: concentration at 12 h (ng/g)
Kindly answer with a numeric value in ng/g, unit omitted.

Input: concentration at 12 h lookup needed for `CCNS(=O)(=O)c1ccc(Cl)c(-c2c3nc(c(-c4c(Cl)ccc(S(=O)(=O)NCC)c4Cl)c4ccc([nH]4)c(-c4c(Cl)ccc(S(=O)(=O)NCC)c4Cl)c4nc(c(-c5c(Cl)ccc(S(=O)(=O)NCC)c5Cl)c5ccc2[nH]5)CC4)CC3)c1Cl` , thanks.
Output: 200
